Test system: L1210 leukemia ip in BDF1 mice, survival T/C
testDescription: NCI In Vivo Anticancer Drug Screen. Data for tumor model L1210 Leukemia (intraperitoneal) in B6D2F1 (BDF1) mice
setupConditions: endpoint: mean survival time; dose: 100.0 mg/kg/injection; schedule: Q04DX003 (ip); vehicle: saline with Tween-80
Toxic doses and inconclusive results are not listed. Cut-off read from the data, not from the text of the source: active = T/C of 150% or more; inactive = T/C below 125%.
Outcome (select one): class 1 = active, class 0 = inactive

// below: answered compounds
Input line: Would you mind telling me which call this test gave CCCCC(=O)N(c1ccc(Nc2c3ccccc3nc3cc([N+](=O)[O-])ccc23)cc1)S(C)(=O)=O ?
Output line: class 1

Input line: Would you mind telling me which call this test gave CCN(CC)c1ccc2c(c1)Cc1ccccc1-2 ?
Output line: class 0

Input line: Would you mind telling me which call this test gave O=C(O)c1cc(O)[nH]c(=O)c1 ?
Output line: class 0

Input line: Would you mind telling me which call this test gave O=C1NC(c2ccccc2)C(=O)NC1c1ccccc1 (stereo unspecified) ?
Output line: class 0

Input line: Would you mind telling me which call this test gave CC(Br)C1=CC(c2ccccc2)(c2ccccc2)c2ccccc21 (stereo unspecified) ?
Output line: class 0

Input line: Would you mind telling me which call this test gave c1ccc(CN2CCCCc3ccccc32)cc1 ?
Output line: class 0

Others:
Input line: Would you mind telling me which call this test gave CCOC(=O)/C=C1/Nc2cc(Cl)c(Cl)cc2NC1=O ?
Output line: class 0

Input line: Would you mind telling me which call this test gave O=C1c2ccccc2C(=O)N1CC(O)CCl (stereo unspecified) ?
Output line: class 0

* * *

System: L1210 leukemia ip in BDF1 mice, survival T/C
testDescription: NCI In Vivo Anticancer Drug Screen. Data for tumor model L1210 Leukemia (intraperitoneal) in B6D2F1 (BDF1) mice
setupConditions: endpoint: mean survival time; dose: 25.0 mg/kg/injection; schedule: Q04DX003 (ip); vehicle: saline; higher = longer survival
Toxic doses and inconclusive results are not listed.
quantityMeasured: T/C

Hey, L1210 leukemia ip in BDF1 mice, survival T/C data for CCCC1(CN2c3ccccc3Sc3ccccc32)CCN(CC)C1 (configuration not stated) : T/C came out at 103 % of control

Hey, L1210 leukemia ip in BDF1 mice, survival T/C data for CC(C)(C)OC(=O)CC1(C)CCC2C1C(=O)OC2(C)C (configuration not stated) : T/C came out at 98 % of control

Hey, L1210 leukemia ip in BDF1 mice, survival T/C data for CCN(CC)Cc1cc(-n2cnc3c(Cl)ncnc32)ccc1O : T/C came out at 96 % of control

Others:
Hey, L1210 leukemia ip in BDF1 mice, survival T/C data for CCC(C1CCC(O)CC1)C(CC)C1CCC(C2=CC(=O)OC2)CC1 (configuration not stated) : T/C came out at 100 % of control

Hey, L1210 leukemia ip in BDF1 mice, survival T/C data for NNC(=O)C1CC1 : T/C came out at 97 % of control

Hey, L1210 leukemia ip in BDF1 mice, survival T/C data for O=c1ccc2ccccc2n1Cc1ccc2ccccc2n1 : T/C came out at 91 % of control

Hey, L1210 leukemia ip in BDF1 mice, survival T/C data for CSc1ncc(COP(=S)(OCc2cnc(SC)nc2N)OCc2cnc(SC)nc2N)c(N)n1 : T/C came out at 103 % of control

* * *

// reported T/C for each item listed
Tested on: L1210 leukemia ip in BDF1 mice, survival T/C
testDescription: NCI In Vivo Anticancer Drug Screen. Data for tumor model L1210 Leukemia (intraperitoneal) in B6D2F1 (BDF1) mice
setupConditions: endpoint: mean survival time; dose: 100.0 mg/kg/injection; schedule: Q04DX003 (ip); vehicle: Klucel (hydroxypropylcellulose) (HPC); higher = longer survival
Method: The antitumor activity of compounds was measured in mice bearing transplantable tumors. Survival or tumor size were measured and the results are expressed as the measurement made in the treated group (T) divided by the measurement made in the vehicle treated control group (C). The tumor model used in this assay is L1210 Leukemia (intraperitoneal) in B6D2F1 (BDF1) mice
Inconclusive results and toxic doses are left out.

Reported T/C ( C=CCOc1ccc2c(C)cc(=O)oc2c1C ) = 96 % of control

Reported T/C ( O=C(OCCOCCOCCOC(=O)c1ccccc1)c1ccccc1 ) = 112 % of control

Reported T/C ( N#C/C(=C/c1ccccc1B(O)O)C(=O)O ) = 89 % of control

Reported T/C ( CC(=O)Nc1ccc(N=Nc2ccccc2)cc1C ) = 96 % of control

Reported T/C ( O=C(CN1CCCCC1)Nc1cccc(C(F)(F)F)c1 ) = 97 % of control

Reported T/C ( O=S(=O)(/N=C(Cl)/C(Cl)=N/S(=O)(=O)c1ccccc1)c1ccccc1 ) = 95 % of control

Others:
Reported T/C ( Cc1ccc(N(N)c2ccc(C)cc2)cc1 ) = 100 % of control

Reported T/C ( COc1ccc(C2c3cc(OC)c(OC)cc3CC3C(=O)OCC32)cc1OC (configuration not stated) ) = 98 % of control

Reported T/C ( CCCCC/C(C)=N\Nc1ccccn1 ) = 101 % of control

Reported T/C ( CCn1cc(C(=O)O)c(=O)c2ccc(C)nc21 ) = 97 % of control

Reported T/C ( CC(C)(C)C(=O)OCn1cnc2c(=N)n(O)cnc21 ) = 97 % of control

Reported T/C ( CC1=C(C)C2(Cl)C(Cl)=C(Cl)C1(Cl)C2(Cl)Cl ) = 91 % of control

* * *

Test system: L1210 leukemia ip in BDF1 mice, survival T/C
testDescription: NCI In Vivo Anticancer Drug Screen. Data for tumor model L1210 Leukemia (intraperitoneal) in B6D2F1 (BDF1) mice
setupConditions: endpoint: mean survival time; dose: 200.0 mg/kg/injection; schedule: Q04DX003 (ip); vehicle: saline with Tween-80; higher = longer survival
Toxic doses and inconclusive results are not listed.
// reported T/C for each item listed

Example compounds with recorded T/C:
Reported T/C ( CC(=O)Nc1ccc(N)cc1N ) = 115 % of control

Reported T/C ( Nc1ccc(S(=O)(=O)CC(=O)N2CCOCC2)cc1 ) = 97 % of control

Reported T/C ( O=[N+]([O-])c1cccc(/C=C/c2ccc(S(=O)(=O)F)cc2)c1 ) = 90 % of control

Others:
Reported T/C ( C/C(=N\O)C1(C)CC=CCC1CO (configuration not stated) ) = 101 % of control

Reported T/C ( CC1(C)CC(=O)C(C)(CCc2ccccc2)C(=O)C1 ) = 98 % of control

Reported T/C ( CCCCCCOC(=O)Nc1cccc(O)c1 ) = 101 % of control

* * *

// reported T/C for each item listed
System: L1210 leukemia ip in BDF1 mice, survival T/C
testDescription: NCI In Vivo Anticancer Drug Screen. Data for tumor model L1210 Leukemia (intraperitoneal) in B6D2F1 (BDF1) mice
setupConditions: endpoint: mean survival time; dose: 25.0 mg/kg/injection; schedule: Q04DX003 (ip); vehicle: saline; higher = longer survival
Inconclusive results and toxic doses are left out.

Hey, L1210 leukemia ip in BDF1 mice, survival T/C data for Cc1c2cnccc2c(C)c2c1c1ccccc1n2CCN(C)C : T/C came out at 97 % of control

Hey, L1210 leukemia ip in BDF1 mice, survival T/C data for CCCCOP(=O)(OCCCC)O/C(C)=C(\C)OP(=O)(OCC)OCC : T/C came out at 102 % of control

Hey, L1210 leukemia ip in BDF1 mice, survival T/C data for CCN(CC)CCOC(=O)c1cccnc1 : T/C came out at 103 % of control

Hey, L1210 leukemia ip in BDF1 mice, survival T/C data for CC1NCCOC1c1ccccc1 (configuration not stated) : T/C came out at 114 % of control

Hey, L1210 leukemia ip in BDF1 mice, survival T/C data for CC1C(C)(C)P(=O)(c2ccccc2)C1(C)C (configuration not stated) : T/C came out at 96 % of control

Hey, L1210 leukemia ip in BDF1 mice, survival T/C data for CC(C)C(C(=O)O)N1C(=O)C2C3CCC(C3)C2C1=O (configuration not stated) : T/C came out at 86 % of control

Hey, L1210 leukemia ip in BDF1 mice, survival T/C data for ClCCOCC1CO1 (configuration not stated) : T/C came out at 92 % of control

* * *

Tested on: L1210 leukemia ip in BDF1 mice, survival T/C
testDescription: NCI In Vivo Anticancer Drug Screen. Data for tumor model L1210 Leukemia (intraperitoneal) in B6D2F1 (BDF1) mice
setupConditions: endpoint: mean survival time; dose: 400.0 mg/kg/injection; schedule: Q01DX009 (ip); vehicle: Klucel (hydroxypropylcellulose) (HPC); higher = longer survival
Inconclusive results and toxic doses are left out.
quantityMeasured: T/C

Example compounds with recorded T/C:
Reported T/C ( CC(=O)Nc1cc(Cl)c(Cl)cc1N ) = 96 % of control

Reported T/C ( O=C(c1ccc(-c2ccccc2)cc1)C1CC1 ) = 91 % of control

# context switch: different compound, same T/C
Reported T/C ( O=C(Nc1cccc(Cl)c1Cl)N(Cc1ccccc1)Cc1ccccc1 ) = 101 % of control
